assaySystem: SWI/SNF-related matrix-associated actin-dependent regulator of chromatin subfamily A member 2 (Homo sapiens, UniProt P51531)
Sequence (P51531 whole entry): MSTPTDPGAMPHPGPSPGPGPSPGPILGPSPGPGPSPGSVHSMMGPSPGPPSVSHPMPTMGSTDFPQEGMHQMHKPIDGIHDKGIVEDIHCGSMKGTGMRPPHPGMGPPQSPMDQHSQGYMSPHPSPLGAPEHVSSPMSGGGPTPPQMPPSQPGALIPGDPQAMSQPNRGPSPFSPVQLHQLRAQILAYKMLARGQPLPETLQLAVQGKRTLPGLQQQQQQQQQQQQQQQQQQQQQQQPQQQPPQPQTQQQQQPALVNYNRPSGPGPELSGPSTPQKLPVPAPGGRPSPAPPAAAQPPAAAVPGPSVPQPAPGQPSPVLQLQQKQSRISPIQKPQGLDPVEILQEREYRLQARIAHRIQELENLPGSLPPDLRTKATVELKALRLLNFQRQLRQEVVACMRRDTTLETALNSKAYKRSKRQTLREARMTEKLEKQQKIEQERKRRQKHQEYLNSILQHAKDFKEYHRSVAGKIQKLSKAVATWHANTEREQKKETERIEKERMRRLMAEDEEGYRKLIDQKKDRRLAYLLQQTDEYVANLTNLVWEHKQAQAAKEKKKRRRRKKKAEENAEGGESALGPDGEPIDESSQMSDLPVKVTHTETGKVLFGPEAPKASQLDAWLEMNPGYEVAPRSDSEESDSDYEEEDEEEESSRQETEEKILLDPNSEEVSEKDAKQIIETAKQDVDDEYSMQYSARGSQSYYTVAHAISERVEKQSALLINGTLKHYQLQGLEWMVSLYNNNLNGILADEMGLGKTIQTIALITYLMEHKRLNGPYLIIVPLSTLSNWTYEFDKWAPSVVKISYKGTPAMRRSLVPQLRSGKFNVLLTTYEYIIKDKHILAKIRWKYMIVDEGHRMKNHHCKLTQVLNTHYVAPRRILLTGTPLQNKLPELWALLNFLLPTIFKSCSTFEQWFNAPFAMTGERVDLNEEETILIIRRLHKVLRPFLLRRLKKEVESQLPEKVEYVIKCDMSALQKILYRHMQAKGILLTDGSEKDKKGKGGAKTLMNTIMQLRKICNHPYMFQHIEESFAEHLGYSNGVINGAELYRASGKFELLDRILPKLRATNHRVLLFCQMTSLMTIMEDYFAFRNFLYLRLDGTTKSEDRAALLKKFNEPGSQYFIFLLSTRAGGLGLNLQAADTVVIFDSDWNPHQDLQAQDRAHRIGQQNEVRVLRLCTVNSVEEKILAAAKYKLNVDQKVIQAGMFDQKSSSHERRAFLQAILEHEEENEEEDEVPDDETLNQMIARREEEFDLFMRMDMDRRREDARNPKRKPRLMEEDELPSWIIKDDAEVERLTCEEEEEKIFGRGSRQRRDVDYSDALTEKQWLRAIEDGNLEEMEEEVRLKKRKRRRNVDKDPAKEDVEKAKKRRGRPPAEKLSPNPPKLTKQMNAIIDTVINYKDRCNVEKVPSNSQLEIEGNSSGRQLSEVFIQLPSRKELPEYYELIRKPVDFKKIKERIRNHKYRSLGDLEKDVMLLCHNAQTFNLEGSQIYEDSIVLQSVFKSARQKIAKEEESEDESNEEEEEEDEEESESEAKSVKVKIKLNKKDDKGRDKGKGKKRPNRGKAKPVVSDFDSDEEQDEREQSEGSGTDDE
pIC50: −log10 of the molar value.
quantity: pIC50

Some solved cases for reference:
[
  {
    "smilesRecord": "CC1(C)c2cc(C3CCNCC3)ccc2-n2c1nc(=O)c1c(Cl)cccc12",
    "pIC50": 7.92
  },
  {
    "smilesRecord": "CC1(C)c2ccc(C3CCNCC3)cc2-n2c1nc(=O)c1c(Cl)cccc12",
    "pIC50": 7.82
  }
]

(I) O=c1nc2n(c3cccc(Cl)c13)-c1cc(C3CCNCC3)ccc1C21CCCCC1
(II) O=c1nc2n(c3cccc(Cl)c13)-c1ccc(C3CCNCC3)cc1C21CCCCC1
Ask: Please tell me which of the two, I or II , has the higher reported pIC50 value. Selection: enter the item's label.
Result: II

Reference source: ChEMBL document CHEMBL6096658
